System: Staphylococcus aureus ATCC 43300
READOUT_NAME: MIC (µM)
Give bare numbers, in µM.

Task: Input CC[C@H](C)[C@H](NC(=O)CN)C(=O)N[C@@H](CC(C)C)C(=O)N[C@@H](CO)C(=O)N[C@H](C(=O)N[C@H](C(=O)N[C@@H](Cc1ccccc1)C(=O)N[C@@H](CCCCN)C(=O)N[C@@H](C)C(=O)NCC(=O)N[C@@H](CCCCN)C(=O)NCC(=O)N[C@H](C(=O)N[C@H](C(=O)N[C@H]1CSSC[C@@H](C(=O)O)NC(=O)[C@H](CC(C)C)NC(=O)CNC(=O)[C@H](CO)NC(=O)[C@H](CC(C)C)NC(=O)CNC1=O)C(C)C)[C@@H](C)CC)C(C)C)[C@@H](C)O [GILSTVFKAGKGIVCGLSGLC] , output reported MIC.
Output: 25

----------
Observed MIC for Saccharomyces cerevisiae, reported per entry below.

- COMPOUND: "CC(C)C[C@H](NC(=O)CNC(=O)[C@H](C)NC(=O)[C@@H](N)CCCN=C(N)N)C(=O)N[C@@H](CCC(N)=O)C(=O)N[C@@H](Cc1ccccc1)C(=O)N[C@@H](CC(C)C)C(=O)N[C@H](C(=O)NCC(=O)N[C@@H](CCCN=C(N)N)C(=O)N[C@H](C(=O)N[C@@H](Cc1cnc[nH]1)C(=O)N[C@@H](CCCN=C(N)N)C(=O)N[C@@H](CC(C)C)C(=O)N[C@@H](CC(C)C)C(=O)N[C@@H](CCCN=C(N)N)C(=O)N[C@@H](CCCCN)C(=O)O)C(C)C)C(C)C [RAGLQFLVGRVHRLLRK]"
  MIC: "7.92 µM"
- COMPOUND: "CC(C)[C@H](NC(=O)[C@H](CS)NC(=O)[C@H](CC(=O)O)NC(=O)CNC(=O)[C@H](CC(N)=O)NC(=O)[C@H](CCCCN)NC(=O)[C@H](CS)NC(=O)[C@H](CCCCN)NC(=O)CNC(=O)CN)C(=O)N[C@@H](CS)C(=O)N[C@@H](CCCN=C(N)N)C(N)=O [GGKCKNGDCVCR]"
  MIC: "≥ 52 µM"
- COMPOUND: "CC[C@H](C)[C@H](NC(=O)[C@H](CCCNC(=N)N)NC(=O)CNC(=O)[C@H](CC(C)C)NC(=O)[C@H](Cc1ccccc1)NC(=O)[C@H](CCCCN)NC(=O)[C@H](CO)NC(=O)[C@H](Cc1ccccc1)NC(=O)[C@H](Cc1c[nH]c2ccccc12)NC(=O)[C@H](CCC(N)=O)NC(=O)[C@@H](NC(=O)[C@@H](N)Cc1ccccc1)C(C)C)C(=O)N[C@@H](CC(C)C)C(N)=O [FVQWFSKFLGRIL]"
  MIC: "6 µM"

Shift focus to the following entry.
Task: Input CC[C@H](C)[C@H](NC(=O)[C@H](CCCN=C(N)N)NC(=O)[C@@H]1CCCN1C(=O)[C@H](CC(C)C)NC(=O)[C@H](Cc1ccccc1)NC(=O)[C@H](CCCCN)NC(=O)[C@H](CO)NC(=O)[C@H](Cc1ccccc1)NC(=O)[C@H](Cc1c[nH]c2ccccc12)NC(=O)[C@@H]1CCCN1C(=O)[C@@H](NC(=O)[C@@H](N)Cc1ccccc1)C(C)C)C(=O)N[C@@H](CC(C)C)C(N)=O [FVPWFSKFLPRIL] , output reported MIC.
Output: 12 µM

----------
Kindly state MIC for each of the entries shown.
System: Pseudomonas corrugata DSM 7228
Experiment: ≥ marks a high value that may be exact or a test limit, other limits are often not marked, values filed in µg/mL are converted to µM
One number for each entry, in µM.

- CHEMICAL_SMILES: "CC(C)C[C@H](NC(=O)[C@H](C)NC(=O)[C@H](CCCN=C(N)N)NC(=O)[C@H](CCCN=C(N)N)NC(=O)[C@H](C)NC(=O)[C@H](Cc1ccccc1)NC(=O)[C@H](CCCN=C(N)N)NC(=O)[C@@H](N)CC(C)C)C(=O)N[C@@H](CCCN=C(N)N)C(=O)N[C@@H](CCCN=C(N)N)C(=O)N[C@@H](CC(C)C)C(=O)N[C@@H](Cc1ccccc1)C(N)=O"
  READOUT_NAME: "MIC"
  VALUE_OBSERVED: 0.318
- CHEMICAL_SMILES: "CC(C)C[C@H](NC(=O)[C@H](C)NC(=O)[C@H](CCCCN)NC(=O)[C@H](CCCCN)NC(=O)[C@H](CC(C)C)NC(=O)[C@H](Cc1ccccc1)NC(=O)[C@H](CCCN=C(N)N)NC(=O)[C@@H](N)CC(C)C)C(=O)N[C@@H](CCCCN)C(=O)N[C@@H](CCCCN)C(=O)N[C@@H](CC(C)C)C(=O)N[C@@H](Cc1ccccc1)C(N)=O"
  READOUT_NAME: "MIC"
  VALUE_OBSERVED: 0.332
- CHEMICAL_SMILES: "CC[C@H](C)[C@H](NC(=O)[C@H](CC(C)C)NC(=O)[C@@H](N)CC(C)C)C(=O)N[C@@H](CCCN=C(N)N)C(=O)N[C@@H](C)C(=O)N[C@@H](C)C(=O)N[C@@H](CCCCN)C(=O)N[C@@H](CCCCN)C(=O)N[C@@H](Cc1ccccc1)C(=O)N[C@H](C(=O)N[C@@H](CCCCN)C(=O)N[C@@H](CCCCN)C(N)=O)[C@@H](C)CC"
  READOUT_NAME: "MIC"
  VALUE_OBSERVED: 28
- CHEMICAL_SMILES: "CC(C)C[C@H](NC(=O)[C@H](CC(C)C)NC(=O)[C@H](CCCN=C(N)N)NC(=O)[C@H](CCCCN)NC(=O)[C@H](CC(C)C)NC(=O)[C@H](CC(C)C)NC(=O)[C@H](CCCCN)NC(=O)[C@H](CCCCN)NC(=O)[C@H](CCCN=C(N)N)NC(=O)[C@H](CCCCN)NC(=O)[C@H](CCCCN)NC(=O)[C@@H](N)CCCN=C(N)N)C(N)=O"
  READOUT_NAME: "MIC"
  VALUE_OBSERVED: 0.158

Shift focus to the following entry.
Task: Given `CC(C)C[C@H](NC(=O)[C@H](C)NC(=O)[C@H](CCCN=C(N)N)NC(=O)[C@H](CCCCN)NC(=O)[C@H](CC(C)C)NC(=O)[C@H](C)NC(=O)[C@H](CCCN=C(N)N)NC(=O)[C@H](C)NC(=O)[C@H](C)NC(=O)[C@H](CCCCN)NC(=O)[C@H](CCCCN)NC(=O)[C@@H](N)CCCCN)C(N)=O` , report its MIC on Pseudomonas corrugata DSM 7228.
Output: 29.5

----------
Test system: Staphylococcus aureus ATCC 43300
READOUT_NAME: MIC (µM)
Numbers only, in µM.

- CHEMICAL_SMILES: "CC[C@H](C)[C@H](NC(=O)[C@H](CCCCN)NC(=O)[C@H](CCCCN)NC(=O)[C@@H](NC(=O)[C@@H](NC(=O)[C@H](CCCCN)NC(=O)[C@H](CCCCN)NC(=O)[C@@H](NC(=O)[C@@H](NC(=O)[C@H](CCCCN)NC(=O)[C@H](CCCCN)NC(=O)[C@@H](NC(=O)[C@@H](NC(=O)CN)[C@@H](C)CC)[C@@H](C)CC)[C@@H](C)CC)[C@@H](C)CC)[C@@H](C)CC)[C@@H](C)CC)C(=O)O"
  UNIT_SYMBOL: "µM"
  MIC: 125

Shift focus to the following entry.
Task: Input `NC(=O)CC[C@H](NC(=O)[C@H](Cc1c[nH]c2ccccc12)NC(=O)[C@H](Cc1c[nH]c2ccccc12)NC(=O)[C@H](CCCN=C(N)N)NC(=O)[C@H](CCCN=C(N)N)NC(=O)[C@H](Cc1c[nH]c2ccccc12)NC(=O)[C@H](CCC(N)=O)NC(=O)[C@@H](N)CCCN=C(N)N)C(=O)N[C@@H](CCCN=C(N)N)C(N)=O` , output reported MIC.
Output: 17.2

----------
Observed MIC for Staphylococcus aureus ATCC 43300, reported per entry below.
Give me the value, and tack the unit on after it.

- CHEMICAL_SMILES: "CC[C@H](C)[C@H](NC(=O)CN)C(=O)N[C@@H](CC(C)C)C(=O)N[C@@H](CO)C(=O)N[C@@H](CO)C(=O)N[C@@H](CC(C)C)C(=O)N[C@@H](CC(C)C)C(=O)N[C@@H](CCCCN)C(=O)N[C@@H](CCCCN)C(=O)N[C@@H](CC(C)C)C(=O)N[C@@H](CCCCN)C(=O)N[C@@H](CCCCN)C(=O)N[C@H](C(=O)N[C@H](C(=O)N[C@@H](C)C(=O)N[C@@H](CCCCN)C(N)=O)[C@@H](C)CC)[C@@H](C)CC"
  READOUT_NAME: "MIC"
  VALUE_OBSERVED: "16 µM"

Shift focus to the following entry.
Task: Input `CC[C@H](C)[C@@H]1NC(=O)CNC(=O)[C@H](CCCN=C(N)N)NC(=O)[C@H](Cc2ccc(O)cc2)NC(=O)[C@@H](NC(=O)[C@@H](NC(=O)[C@H](CCCN=C(N)N)NC(=O)[C@H](Cc2ccccc2)NC(=O)[C@H](CO)NC(=O)[C@H](Cc2c[nH]c3ccccc23)NC(=O)[C@@H](N)CCCCN)C(C)C)CSSC[C@@H](C(=O)N[C@@H](Cc2ccc(O)cc2)C(=O)N[C@@H](CCCN=C(N)N)C(=O)N[C@@H](CCCN=C(N)N)C(=O)N[C@@H](C)C(=O)N[C@@H](CCCN=C(N)N)C(=O)O)NC1=O` , output reported MIC.
Output: 1.8 µM

These data points were gathered from DBAASP.
